- ASSAY_PROCEDURE: AUC in rat at 20 mg/kg, po or 2 mg/kg, iv
- Type: ADME, organism-based
- Design: dose 20 mg/kg, route po
- STUDY_CONDITIONS: in vivo, read-out: AUC
# if measured AUC < 500 ng·h/mL: Met  # else: Not met

I'd appreciate it if you could check whether CN1CCN(C(C)(C)/C=C(\C#N)C(=O)N2CCC[C@@H](n3nc(-c4ccc(Oc5ccccc5)cc4F)c4c(N)ncnc43)C2)CC1=O has AUC smaller than 500 ng·h/mL. Not met

I'd appreciate it if you could check whether CN1CCN(C(C)(C)/C=C(\C#N)C(=O)N2CCC[C@@H](n3nc(-c4ccc(Oc5ccccc5)cc4F)c4c(N)ncnc43)C2)CC1 has AUC smaller than 500 ng·h/mL. Not met

I'd appreciate it if you could check whether COC(=O)N1CCN(C(C)(C)/C=C(\C#N)C(=O)N2CCC[C@@H](n3nc(-c4ccc(Oc5ccccc5)cc4F)c4c(N)ncnc43)C2)CC1 has AUC smaller than 500 ng·h/mL. Met

I'd appreciate it if you could check whether CC(C)(/C=C(\C#N)C(=O)N1CCC[C@@H](n2nc(-c3ccc(Oc4ccccc4)cc3F)c3c(N)ncnc32)C1)N1CCN(C2COC2)CC1 [RILZABRUTINIB] has AUC smaller than 500 ng·h/mL. Not met

I'd appreciate it if you could check whether CC(C)(/C=C(/C#N)C(=O)N1CCC[C@@H]1Cn1nc(-c2ccc(Oc3ccccc3)cc2F)c2c(N)ncnc21)N1CCOCC1 has AUC smaller than 500 ng·h/mL. Met

I'd appreciate it if you could check whether C[C@@H]1CN(C(C)(C)/C=C(\C#N)C(=O)N2CCC[C@@H](n3nc(-c4ccc(Oc5ccccc5)cc4F)c4c(N)ncnc43)C2)C[C@H](C)N1C has AUC smaller than 500 ng·h/mL. Not met

###

- ASSAY_PROCEDURE: Clearance in rat liver S9 fraction assessed as measuring per mg protein
- Type: ADME, subcellular
- STUDY_CONDITIONS: read-out: CLH
PROPERTY_MEASURED: microsomal CLint (µL/min/mg)
Give your result in µL/min/mg as a bare value.

// fetch microsomal CLint given entry CC(C)(C)/C=C(\C#N)C(=O)N1CCC[C@@H](n2nc(-c3ccc(Oc4ccccc4)cc3F)c3c(N)ncnc32)C1 [ATUZABRUTINIB] 54

###

- ASSAY_PROCEDURE: Clearance in rat at 2 mg/kg, iv
- Type: ADME, organism-based
- STUDY_CONDITIONS: in vivo
For each record, write down the corresponding clearance.
Give your result in mL/min/kg as a bare value.

// fetch clearance given entry CC(C)(/C=C(\C#N)C(=O)N1CCC[C@@H](n2nc(-c3ccc(Oc4ccccc4)cc3F)c3c(N)ncnc32)C1)N1CCN(C2COC2)CC1 [RILZABRUTINIB] 66

// fetch clearance given entry CN1CCN(C(C)(C)/C=C(\C#N)C(=O)N2CCC[C@@H](n3nc(-c4ccc(Oc5ccccc5)cc4F)c4c(N)ncnc43)C2)CC1=O 73

// fetch clearance given entry COC(=O)N1CCN(C(C)(C)/C=C(\C#N)C(=O)N2CCC[C@@H](n3nc(-c4ccc(Oc5ccccc5)cc4F)c4c(N)ncnc43)C2)CC1 89

// fetch clearance given entry CN1CCN(C(C)(C)/C=C(\C#N)C(=O)N2CCC[C@@H](n3nc(-c4ccc(Oc5ccccc5)cc4F)c4c(N)ncnc43)C2)CC1 119

// fetch clearance given entry CC(C)(/C=C(/C#N)C(=O)N1CCC[C@@H]1Cn1nc(-c2ccc(Oc3ccccc3)cc2F)c2c(N)ncnc21)N1CCOCC1 120

// fetch clearance given entry C[C@@H]1CN(C(C)(C)/C=C(\C#N)C(=O)N2CCC[C@@H](n3nc(-c4ccc(Oc5ccccc5)cc4F)c4c(N)ncnc43)C2)C[C@H](C)N1C 91

###

- ASSAY_PROCEDURE: Drug concentration in plasma of collagen-induced arthritis Lewis rat model 20 mg/kg measured after 12 hrs post-collection of plasma
- Format: ADME, organism-based
PROPERTY_MEASURED: concentration at 12 h (ng/mL)
Give your result in ng/mL as a bare value.

// fetch concentration at 12 h given entry CC(C)(/C=C(\C#N)C(=O)N1CCC[C@@H](n2nc(-c3ccc(Oc4ccccc4)cc3F)c3c(N)ncnc32)C1)N1CCN(C2COC2)CC1 [RILZABRUTINIB] 4.6

###

- MEASURED_ON: UniProt:P42680
- Sequence (P42680 whole entry): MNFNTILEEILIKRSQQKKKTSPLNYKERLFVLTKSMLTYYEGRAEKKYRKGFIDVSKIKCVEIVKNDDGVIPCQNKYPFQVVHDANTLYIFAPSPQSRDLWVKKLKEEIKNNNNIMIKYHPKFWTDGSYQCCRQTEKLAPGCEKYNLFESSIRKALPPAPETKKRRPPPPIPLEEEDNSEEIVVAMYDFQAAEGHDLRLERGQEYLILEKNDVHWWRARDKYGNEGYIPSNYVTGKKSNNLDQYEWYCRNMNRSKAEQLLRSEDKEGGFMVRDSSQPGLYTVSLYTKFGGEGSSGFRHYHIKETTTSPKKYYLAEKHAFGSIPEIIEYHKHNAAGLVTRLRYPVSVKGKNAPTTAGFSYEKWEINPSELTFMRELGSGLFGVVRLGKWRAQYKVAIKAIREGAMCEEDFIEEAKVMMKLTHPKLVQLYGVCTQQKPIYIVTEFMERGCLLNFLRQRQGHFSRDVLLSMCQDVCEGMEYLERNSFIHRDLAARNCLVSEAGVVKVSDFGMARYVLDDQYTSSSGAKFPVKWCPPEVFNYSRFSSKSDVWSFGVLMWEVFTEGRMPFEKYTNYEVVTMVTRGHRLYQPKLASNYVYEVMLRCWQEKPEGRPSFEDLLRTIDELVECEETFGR
- ASSAY_PROCEDURE: Inhibition of TEC (unknown origin) using peptide substrate in presence of ATP by caliper electrophoresis method
PROPERTY_MEASURED: IC50 (nM)
Give your result in nM as a bare value.

// fetch IC50 given entry CN1CCN(C(C)(C)/C=C(\C#N)C(=O)N2CCC[C@@H](n3nc(-c4ccc(Oc5ccccc5)cc4F)c4c(N)ncnc43)C2)CC1 0.5

// fetch IC50 given entry CC(C)(C)/C=C(\C#N)C(=O)N1CCC[C@@H](n2nc(-c3ccc(Oc4ccccc4)cc3F)c3c(N)ncnc32)C1 1.9

// fetch IC50 given entry CC(C)(/C=C(/C#N)C(=O)N1CCC[C@@H]1Cn1nc(-c2ccc(Oc3ccccc3)cc2F)c2c(N)ncnc21)N1CCOCC1 4.5

###

- ASSAY_PROCEDURE: Solubility of compound in PBS at pH 7 by LCMS/MS analysis
- Format: physicochemical
Please mark Yes if the recorded solubility is equal to or greater than 200 µM, and No if it falls below.

Determine whether this compound has solubility no lower than 200 µM: COC(=O)N1CCN(C(C)(C)/C=C(\C#N)C(=O)N2CCC[C@@H](n3nc(-c4ccc(Oc5ccccc5)cc4F)c4c(N)ncnc43)C2)CC1 No

Determine whether this compound has solubility no lower than 200 µM: CN1CCN(C(C)(C)/C=C(\C#N)C(=O)N2CCC[C@@H](n3nc(-c4ccc(Oc5ccccc5)cc4F)c4c(N)ncnc43)C2)CC1 Yes

Determine whether this compound has solubility no lower than 200 µM: C[C@@H]1CN(C(C)(C)/C=C(\C#N)C(=O)N2CCC[C@@H](n3nc(-c4ccc(Oc5ccccc5)cc4F)c4c(N)ncnc43)C2)C[C@H](C)N1C Yes

Determine whether this compound has solubility no lower than 200 µM: COCCN1CCN(C(C)(C)/C=C(\C#N)C(=O)N2CCC[C@@H](n3nc(-c4ccc(Oc5ccccc5)cc4F)c4c(N)ncnc43)C2)CC1 Yes

Determine whether this compound has solubility no lower than 200 µM: CC(C)(/C=C(\C#N)C(=O)N1CCC[C@@H](n2nc(-c3ccc(Oc4ccccc4)cc3F)c3c(N)ncnc32)C1)N1CCN(C2COC2)CC1 [RILZABRUTINIB] No

Determine whether this compound has solubility no lower than 200 µM: CC(C)(/C=C(\C#N)C(=O)N1CCC[C@@H](n2nc(-c3ccc(Oc4ccccc4)cc3F)c3c(N)ncnc32)C1)N1CCNCC1 Yes

###

For each record, write down the corresponding pIC50.
- MEASURED_ON: Tyrosine-protein kinase BTK (Homo sapiens)
- Sequence (Q06187 whole entry): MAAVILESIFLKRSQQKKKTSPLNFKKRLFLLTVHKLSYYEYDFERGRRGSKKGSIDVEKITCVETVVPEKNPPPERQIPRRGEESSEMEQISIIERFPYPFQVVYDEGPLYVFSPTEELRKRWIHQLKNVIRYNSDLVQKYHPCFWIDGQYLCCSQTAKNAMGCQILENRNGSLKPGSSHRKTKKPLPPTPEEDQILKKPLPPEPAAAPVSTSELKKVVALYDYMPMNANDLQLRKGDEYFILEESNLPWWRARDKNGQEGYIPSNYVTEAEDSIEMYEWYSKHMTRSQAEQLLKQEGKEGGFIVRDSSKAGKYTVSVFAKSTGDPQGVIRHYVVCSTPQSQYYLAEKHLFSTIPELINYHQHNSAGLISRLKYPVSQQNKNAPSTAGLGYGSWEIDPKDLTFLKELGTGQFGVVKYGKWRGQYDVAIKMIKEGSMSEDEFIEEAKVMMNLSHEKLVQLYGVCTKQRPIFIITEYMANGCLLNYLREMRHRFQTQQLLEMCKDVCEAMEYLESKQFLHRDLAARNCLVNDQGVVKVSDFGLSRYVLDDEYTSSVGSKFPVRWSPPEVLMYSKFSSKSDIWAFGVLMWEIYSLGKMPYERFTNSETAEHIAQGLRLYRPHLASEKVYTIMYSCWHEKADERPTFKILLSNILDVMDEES
- ASSAY_PROCEDURE: Inhibition of BTK (unknown origin) using peptide substrate in presence of ATP by caliper electrophoresis method
The quantity pIC50 is defined as the negative base-10 logarithm of the molar concentration.

// fetch pIC50 given entry CC(C)(C)/C=C(\C#N)C(=O)N1CCC[C@@H](n2nc(-c3ccc(Oc4ccccc4)cc3F)c3c(N)ncnc32)C1 8.74

// fetch pIC50 given entry CC(C)(/C=C(/C#N)C(=O)N1CCC[C@@H]1Cn1nc(-c2ccc(Oc3ccccc3)cc2F)c2c(N)ncnc21)N1CCOCC1 7.14

###

- ASSAY_PROCEDURE: Oral bioavailability in rat at 20 mg/kg
- Type: ADME, organism-based
- STUDY_CONDITIONS: in vivo
PROPERTY_MEASURED: bioavailability (%)
Give your result in % as a bare value.

// fetch bioavailability given entry CN1CCN(C(C)(C)/C=C(\C#N)C(=O)N2CCC[C@@H](n3nc(-c4ccc(Oc5ccccc5)cc4F)c4c(N)ncnc43)C2)CC1 20.2

// fetch bioavailability given entry CC(C)(/C=C(\C#N)C(=O)N1CCC[C@@H](n2nc(-c3ccc(Oc4ccccc4)cc3F)c3c(N)ncnc32)C1)N1CCN(C2COC2)CC1 12.3

// fetch bioavailability given entry CN1CCN(C(C)(C)/C=C(\C#N)C(=O)N2CCC[C@@H](n3nc(-c4ccc(Oc5ccccc5)cc4F)c4c(N)ncnc43)C2)CC1=O 10.9

// fetch bioavailability given entry CC(C)(/C=C(/C#N)C(=O)N1CCC[C@@H]1Cn1nc(-c2ccc(Oc3ccccc3)cc2F)c2c(N)ncnc21)N1CCOCC1 17.3

// fetch bioavailability given entry C[C@@H]1CN(C(C)(C)/C=C(\C#N)C(=O)N2CCC[C@@H](n3nc(-c4ccc(Oc5ccccc5)cc4F)c4c(N)ncnc43)C2)C[C@H](C)N1C 67

// fetch bioavailability given entry COC(=O)N1CCN(C(C)(C)/C=C(\C#N)C(=O)N2CCC[C@@H](n3nc(-c4ccc(Oc5ccccc5)cc4F)c4c(N)ncnc43)C2)CC1 11.5

Hey, just so you know, these numbers are from ChEMBL document CHEMBL5104103.
